# system.under.test: T1, human bow-Ang-2 tetrameric construct (hBA2) (human)
# T1 construct: also called human BA2; hBA2-hIgG1
# experiment.description: SPR, captured Ab
reported.property: Kd (nM)
# number only, unit nM dropped from output

Worked examples, 4 binders total:
- binder: "H1H706P (antibody, V domains shown) VH: QVQLVESGGGVVQPGRSLRLSCAASGFTFSSYGMHWVRQAPDKGLEWVAVKWDDGSNKYYADSVKGRFTISRDNSKNTLYLQMNSLRAEDTAVYYCAREGPYDFYSGYGAFDIWGQGTMVTVSS VL: DIQMTQSPSSLSASVGDRVTITCRASQGISNYLAWFQQKPGKAPKSLIYAASSLQSGVPSKFSGSGSGTDFTLTISSLQPEDFATYYCQQYNSYPRTFGQGTKVEIK"
  reported.property: "Kd"
  observed: 0.0791
- binder: "H1H730N (antibody, V domains shown) VH: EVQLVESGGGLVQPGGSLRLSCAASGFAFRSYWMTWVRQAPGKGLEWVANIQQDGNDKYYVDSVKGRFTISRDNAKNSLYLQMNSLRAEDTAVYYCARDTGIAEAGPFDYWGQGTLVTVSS VL: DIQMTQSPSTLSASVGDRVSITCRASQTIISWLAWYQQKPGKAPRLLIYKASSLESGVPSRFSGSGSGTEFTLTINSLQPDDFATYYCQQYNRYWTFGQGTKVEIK"
  reported.property: "Kd"
  observed: 0.0559
- binder: "H1H695P (antibody, V domains shown) VH: QVQLVESGGGVVQPGRSLRLSCAASGFTFSSYGMHWVRQAPGKGLEWVAVMWYDETNKYYADSVKGRFTISRDNSKNTLYLQMNSLRAEDTAVYYCARYSGYEDYYHGMDVWGQGTTVTVS VL: EIVMTQSPATPSVSPGERATLSCRASQSISSNLAWYQQKPGQAPRLLIYGASTRATGIPARFSGSGSGTEFTLTISSLQSEDFAVYYCQHYNNWITFGQGTRLEIK"
  reported.property: "Kd"
  observed: 0.0401
- binder: "H1H743N (antibody, V domains shown) VH: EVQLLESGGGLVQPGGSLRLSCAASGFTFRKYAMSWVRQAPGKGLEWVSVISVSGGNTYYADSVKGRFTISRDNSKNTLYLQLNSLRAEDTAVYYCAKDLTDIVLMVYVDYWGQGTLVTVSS VL: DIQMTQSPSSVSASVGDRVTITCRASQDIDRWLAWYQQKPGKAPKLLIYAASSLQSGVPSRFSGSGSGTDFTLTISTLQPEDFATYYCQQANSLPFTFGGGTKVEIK"
  reported.property: "Kd"
  observed: 0.00971

Turning to the following binder.
Prompt: Reported Kd, binder H1H750N (antibody, V domains shown) VH: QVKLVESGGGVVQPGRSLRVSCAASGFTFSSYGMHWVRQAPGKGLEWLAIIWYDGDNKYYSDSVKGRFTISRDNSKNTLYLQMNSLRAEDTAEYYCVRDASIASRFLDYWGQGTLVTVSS VL: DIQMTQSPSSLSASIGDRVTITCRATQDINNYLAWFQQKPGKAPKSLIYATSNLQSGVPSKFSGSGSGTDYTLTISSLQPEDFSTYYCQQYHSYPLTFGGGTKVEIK : ____
Response: 0.0369
